# System tested: CDK6/cyclin D3 (Homo sapiens, UniProt Q00534)
# Sequence (P30281 whole entry, the tested form may be a part): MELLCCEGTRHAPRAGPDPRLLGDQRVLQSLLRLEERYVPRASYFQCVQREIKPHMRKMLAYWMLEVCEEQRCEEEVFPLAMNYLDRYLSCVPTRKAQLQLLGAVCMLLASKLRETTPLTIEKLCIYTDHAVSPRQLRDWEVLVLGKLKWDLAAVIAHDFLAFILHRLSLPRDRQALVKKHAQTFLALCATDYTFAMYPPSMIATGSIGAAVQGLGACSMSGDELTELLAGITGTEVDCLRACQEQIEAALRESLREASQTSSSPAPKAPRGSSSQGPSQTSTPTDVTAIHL
# Sequence (Q00534 whole entry, the tested form may be a part): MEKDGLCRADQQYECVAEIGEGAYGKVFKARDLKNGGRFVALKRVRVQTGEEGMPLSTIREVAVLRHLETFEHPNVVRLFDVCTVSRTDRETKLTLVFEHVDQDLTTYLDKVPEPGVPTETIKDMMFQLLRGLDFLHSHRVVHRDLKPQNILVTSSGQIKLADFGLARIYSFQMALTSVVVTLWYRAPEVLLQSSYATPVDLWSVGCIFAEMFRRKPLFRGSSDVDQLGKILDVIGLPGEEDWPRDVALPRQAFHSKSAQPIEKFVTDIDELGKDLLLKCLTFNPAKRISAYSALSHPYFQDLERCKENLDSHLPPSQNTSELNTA
# Experimental details: Inhibition of N-terminal GST-tagged human CDK6 (1 to 326 residues)/N-terminal 6-His fused human Cyclin D3 (1 to 292 residues) expressed in Sf9 insect cells incubated for 60 mins by HTRF assay
Measured endpoint: IC50 (nM)

Please review the following examples before continuing.
| Query smiles | System tested | Measured endpoint | Result number |
| --- | --- | --- | --- |
| CC(C)(O)Cn1cc(-c2nc(NC3CCN(S(C)(=O)=O)CC3)ncc2C(F)(F)F)cn1 | CDK6/cyclin D3 (Homo sapiens, UniProt Q00534) | IC50 | 160 |
| CS(=O)(=O)N1CCC(Nc2ncc(C(F)(F)F)c(-c3cnn(CC(F)(F)F)c3)n2)CC1 | CDK6/cyclin D3 (Homo sapiens, UniProt Q00534) | IC50 | 22 |
| CNCc1ccc(-n2cc(-c3nc(NC4CCN(S(C)(=O)=O)CC4)ncc3C(F)(F)F)cn2)c(Cl)c1 | CDK6/cyclin D3 (Homo sapiens, UniProt Q00534) | IC50 | 58 |
| CN1CCC(n2cc(-c3nc(NC4CCN(S(C)(=O)=O)CC4)ncc3C(F)(F)F)cn2)CC1 | CDK6/cyclin D3 (Homo sapiens, UniProt Q00534) | IC50 | 153 |

a: CS(=O)(=O)N1CCC(Nc2ncc(C(F)(F)F)c(-c3cnn(C4CCCCC4)c3)n2)CC1
b: CS(=O)(=O)N1CCC(Nc2ncc(C(F)(F)F)c(-c3cnn(-c4ccccc4F)c3)n2)CC1
I need your help: which of the pair a , b has higher IC50? # reply format: chosen label b

---

# Experimental details: Oral bioavailability in cynomolgus monkey at 1.5 mg/kg administered as cassette dose and measured upto 24 hrs by LC-MS/MS analysis
# Assay type: ADME, organism-based, Macaca fascicularis
# Conditions: in vivo
Measured endpoint: bioavailability (%)
Your answer is read as %, so omit the unit and give the number.

Return reported bioavailability; argument: CNCc1ccc(-n2cc(-c3nc(NC4CCN(S(C)(=O)=O)CC4)ncc3C#N)cn2)c(Cl)c1 20

---

# Experimental details: Apparent permeability from apical to basolateral side in human Caco-2 cells at 50 uM incubated for 120 mins by LCMS analysis
Measured endpoint: Papp A→B at 2 h, 50 µM (×10⁻⁶ cm/s)

| Query smiles | Reading unit | Papp A→B at 2 h, 50 µM |
| --- | --- | --- |
| CC(C)(O)Cn1cc(-c2nc(NC3CCN(S(=O)(=O)C4CC4)CC3)ncc2C#N)cn1 | ×10⁻⁶ cm/s | 4.3 |

P: Cn1cnc(S(=O)(=O)N2CCC(Nc3ncc(C(F)(F)F)c(-c4cnn(CC(F)(F)F)c4)n3)CC2)c1
Q: CNCc1ccc(-n2cc(-c3nc(NC4CCN(S(C)(=O)=O)CC4)ncc3C(F)(F)F)cn2)c(Cl)c1
Please compare: P and Q . Report which one has the smaller Papp A→B at 2 h, 50 µM value. # reply format: chosen label Q
(Q: 3.3 ×10⁻⁶ cm/s, P: 5.4 ×10⁻⁶ cm/s)

---

# System tested: Cyclin-dependent kinase 2 (Homo sapiens)
# Experimental details: Inhibition of CDK2 in human whole blood spiked with CCNE1-amplified human COV318 cells assessed as reduction in retinoblastoma protein phosphorylation at S780 residue incubated overnight by HTRF microplate reader
# Type: cell-based
Measured endpoint: IC50 (nM)

| Query smiles | Result number |
| --- | --- |
| CS(=O)(=O)N1CCC(Nc2ncc(C(F)(F)F)c(-c3cnn(-c4ccccc4Cl)c3)n2)CC1 | 823 |

a: CS(=O)(=O)N1CCC(Nc2ncc(C(F)(F)F)c(-c3cnn(C4CCCCC4)c3)n2)CC1
b: CS(=O)(=O)N1CCC(Nc2ncc(C(F)(F)F)c(-c3cnn(CC(F)(F)F)c3)n2)CC1
c: CNCc1ccc(-n2cc(-c3nc(NC4CCN(S(C)(=O)=O)CC4)ncc3C(F)(F)F)cn2)c(Cl)c1
Put the items in sequence by IC50, from largest down. Reply with the labels, ordered as the question asks. a, b, c
(a: 5050 nM, b: 709 nM, c: 263 nM)
